Recorded TGI by entry
tested on: NCI-H23 lung; assay: NCI tumour cell line growth inhibition, 48 h

Past entries and their recorded results:
{"SAMPLE_SMILES": "COc1cc2c3c(n(CCCN=[N+]=[N-])c(=O)c2cc1OC)-c1ccc(N(C)C)cc1C3=O", "TGI": "> 100 µM"}
{"SAMPLE_SMILES": "c1ccc2cc3c(cc2c1)nc1ccccn13", "TGI": "> 100 µM"}
{"SAMPLE_SMILES": "NCCSCCc1ccccc1", "TGI": "> 100 µM"}
{"SAMPLE_SMILES": "Cc1cc2c(cc1Cl)SC(NNc1ccc([N+](=O)[O-])cc1)=NS2(=O)=O", "TGI": "> 10 µM"}
{"SAMPLE_SMILES": "CCOC(=O)c1c(C)c(C)n2c1NC(=O)C2", "TGI": "> 68.5 µM"}

Request: Could you share which TGI value was measured for `Cc1ccc(S(=O)(=O)NCCCSCCSCCCN)cc1` ?
Response: > 100 µM

Request: Could you share which TGI value was measured for `COc1ccccc1CNC(=O)[C@H](Cc1ccc(O)cn1)NC(C)=O` ?
Response: > 100 µM

###

tested on: OVCAR-8 ovarian; assay: NCI tumour cell line growth inhibition, 48 h
PROPERTY_MEASURED: TGI

Request: Could you share which TGI value was measured for CCN(CC)CCO/N=C1/C=C2CCC3C(CC[C@@]4(C)C3CC[C@]4(C)O)[C@@]2(C)CC1 (stereo partly drawn) ?
Response: 20.4 µM

Request: Could you share which TGI value was measured for `O=C(CSC1=NNC2(C(=O)N1)c1ccccc1-c1ccccc12)NC(=S)Nc1ccccc1` ?
Response: > 10 µM

Request: Could you share which TGI value was measured for `CCc1cc2c(oc3cc(C)ccc32)c(=O)n1C` ?
Response: > 10 µM

###

tested on: SF-539 CNS; assay: NCI tumour cell line growth inhibition, 48 h
Recorded TGI by entry
Express your answer in µM, writing the number without its unit.

{"SAMPLE_SMILES": "CCOP(=O)(OCC)/C(C#N)=C/c1ccnc2ccccc12", "MEASURED_TARGET": "SF-539 CNS", "TGI [µM]": 49.2}
{"SAMPLE_SMILES": "CN(/N=N/c1nc(OCc2ccccc2)c2[nH]cnc2n1)C(=O)Oc1ccc([N+](=O)[O-])cc1", "MEASURED_TARGET": "SF-539 CNS", "TGI [µM]": 28.8}

Request: Could you share which TGI value was measured for `CSc1cccc(NC(=O)OC2CCCCCCCCCCC2)c1` ?
Response: 63.7

Request: Could you share which TGI value was measured for `N#Cc1cc(S(=O)(=O)Nc2nc3ccccc3s2)c(SCc2ccccc2)cc1Cl` ?
Response: 34.8

Request: Could you share which TGI value was measured for `O=C(Nc1ccc(I)cc1F)c1cc(Cl)ccc1O` ?
Response: 3.89

###

Recorded TGI by entry
test system: MOLT-4 leukemia; experiment: NCI tumour cell line growth inhibition, 48 h
Express your answer in µM, writing the number without its unit.

{"COMPOUND": "COc1cc(/C=C/C(=O)c2cccnc2Nc2ccc(F)cc2)cc(OC)c1OC", "MEASURE_UNIT": "µM", "TGI": 9.52}

Request: Could you share which TGI value was measured for `C/C=C/[C@H](O[Si](C)(C)C(C)(C)C)[C@@H](O)/C=C/C(=O)OCC` ?
Response: 37.6

Request: Could you share which TGI value was measured for CC[C@@H]1/C=C/C=C/C[C@H](C)[C@@H](O)[C@](C)(O)C(=O)[C@H](C)[C@@H](O)[C@H](C)C(=O)[C@H](C)[C@@H](O)[C@H](C)/C=C/C(=O)O[C@H]2[C@@H](C)[C@@H](CC1)O[C@@]1(CC[C@@H](C)[C@@H](CC(C)O)O1)[C@@H]2C (stereo partly specified) ?
Response: 6.26

###

test system: DMS 114 small cell lung; experiment: NCI tumour cell line growth inhibition, 48 h
Recorded TGI by entry

Past entries and their recorded results:
{"COMPOUND": "[Cl][Cd][Cl]", "TGI": "> 55 µM"}
{"COMPOUND": "COC(=O)c1ccc(NCc2cc(O)ccc2O)cc1", "TGI": "8.04 µM"}
{"COMPOUND": "O=C(/C=C1/Nc2ccc([N+](=O)[O-])cc2NC1O)c1cccc([N+](=O)[O-])c1 (centres undefined)", "TGI": "> 100 µM"}

Would you kindly look at the next entry?
Request: Could you share which TGI value was measured for `O=C1c2nc3n(c2C(=O)c2c1nc1n2CCC1)CCC3` ?
Response: 5.29 µM

###

Recorded TGI by entry
tested on: MDA-MB-231 breast; experiment: NCI tumour cell line growth inhibition, 48 h

Past entries and their recorded results:
{"MOLECULE": "c1ccc(CC2(c3cc4ccccc4[nH]3)OCCO2)nc1", "REPORTED_VALUE": "> 100 µM"}
{"MOLECULE": "COc1ccc(NC2CC(C)N(C(=O)c3ccccc3)O2)cc1 (stereo not drawn)", "REPORTED_VALUE": "> 10 µM"}

Would you kindly look at the next entry?
Request: What reported TGI corresponds to `COCCOC(=O)C(C)=[N+]=[N-]` on MDA-MB-231 breast?
Response: > 100 µM

###

system: NCI-H522 lung; experiment: NCI tumour cell line growth inhibition, 48 h
PROPERTY_MEASURED: TGI

Past entries and their recorded results:
{"COMPOUND": "O=C(Nc1ccc(I)cc1F)c1cc(Cl)ccc1O", "REPORTED_VALUE": "4.68 µM"}
{"COMPOUND": "COc1ccc(N2C(=O)CC(c3c[nH]c4ncccc34)C2=O)cc1 (stereo not drawn)", "REPORTED_VALUE": "24.2 µM"}

Would you kindly look at the next entry?
Request: What reported TGI corresponds to CCC(=O)C(C(C)/C=C/CCSc1ccccc1)C(O)CCCCCC(=O)OC (stereo not drawn) on NCI-H522 lung?
Response: > 100 µM

###

system: SK-MEL-2 melanoma; assay: NCI tumour cell line growth inhibition, 48 h
PROPERTY_MEASURED: TGI

{"COMPOUND": "Cc1nc2c(=O)n3c4c(cccc4c2o1)CCC3", "PROPERTY_MEASURED": "TGI", "REPORTED_VALUE": "> 100 µM"}
{"COMPOUND": "CC(C)C(NCc1c(O)ccc2c(-c3ccccc3)cc(=O)oc12)C(=O)O (stereo not drawn)", "PROPERTY_MEASURED": "TGI", "REPORTED_VALUE": "> 100 µM"}

Would you kindly look at the next entry?
Request: Could you share which TGI value was measured for O=C1C2Nc3ccccc3SC2C(=O)N1c1ccccc1C(F)(F)F (stereo not drawn) ?
Response: > 100 µM

###

Recorded TGI by entry
tested on: DMS 273 small cell lung; test: NCI tumour cell line growth inhibition, 48 h

Past entries and their recorded results:
{"COMPOUND": "CC(C)(C)S(=O)OC12CC3CC(CC(C3)C1)C2 (centres undefined)", "REPORTED_VALUE": "> 100 µM"}
{"COMPOUND": "COC(=O)C1=CC2OC1(C)CCC2=O (centres undefined)", "REPORTED_VALUE": "> 100 µM"}
{"COMPOUND": "NCc1cc(O)c(O)c(O)c1", "REPORTED_VALUE": "> 100 µM"}

Request: Could you share which TGI value was measured for COC1=C2CC(C)CC(OC)C(O)C(C)/C=C(\C)C(OC(N)=O)C(OC)/C=C\C=C(/C)C(=O)NC(=C(/C=N/N3CCCCC3)C1=O)C2=O (centres undefined) ?
Response: 27.6 µM

Request: Could you share which TGI value was measured for `[Cl][Cd][Cl]` ?
Response: 31.2 µM

Request: Could you share which TGI value was measured for Cc1cc(Cl)ccc1C1OC(=O)c2c1ccc1ccccc21 (centres undefined) ?
Response: > 100 µM

Request: Could you share which TGI value was measured for `Cc1cc2c(C)n(Cc3ccc(Cl)cc3Cl)nc2c(C(=O)O)c1C` ?
Response: > 100 µM

Request: Could you share which TGI value was measured for `C=C(Cl)Cc1c(O)c2c(c(O)c1CC(=C)Cl)C(=O)c1ccccc1C2=O` ?
Response: > 100 µM

Request: Could you share which TGI value was measured for `O=C(Nc1ccn(CCI)c(=O)n1)c1ccccc1` ?
Response: > 100 µM

###

Recorded GI50 by entry
test system: SN12C renal

Past entries and their recorded results:
{"SAMPLE_SMILES": "CC(C)COC(=O)c1ccc2[nH]c(O)c(C=Nc3ccc(S(N)(=O)=O)cc3)c2c1", "GI50": "1210 nM"}
{"SAMPLE_SMILES": "ClCc1ccc(Cn2cnc3c(Cl)nc(Cl)nc32)cc1", "GI50": "7180 nM"}

Request: What reported GI50 corresponds to `COc1ccc(OC)c(Nc2nc(-c3c(C)nc4sccn34)cs2)c1` on SN12C renal?
Response: > 100000 nM

Request: What reported GI50 corresponds to `CC(=O)Oc1ccc(C(c2ccc(OC(C)=O)cc2)c2ccccn2)cc1` on SN12C renal?
Response: 558 nM

Request: What reported GI50 corresponds to `c1ccc(CNc2nc(Nc3ccccc3)nc3ccccc23)cc1` on SN12C renal?
Response: 1730 nM
